Test: soluble fraction after stress (log2 fold change); higher = more stays soluble; pooled small domains, quantitative proteomics
Conditions: stress: 50 degC
Experimental endpoint: soluble fraction (log2)

1. HMDVSLVEQTQRDILEYISKNNSNAQLPKEQEFVGLLGVSRVVVREALSRLRALGIIETKRKKGTVVVVPE -0.165
2. HMQSISLEEAKSAALDDAQLGIDEVEFLKTERNTDGDTSYYDIQFLVNGTIYKYQINTETGAILHVDYEA -0.052
3. HMQVSDTNTLEQFAKEVIEANPKAVEDYHQNPLAIGFLVGQLMKVSKGSANPQTGKEILEKLL 0.178
4. HMAGTRRFELVEGSSSKFWEVTVADGSYTVTYGRIGTAGGSKTTESATAEADAEKLVREKLKKGYQEAGAA 0.245
5. HMSESIFTLYGDEKFEKIRYYLKERGFITLDALARFDFDELLFVPGVSELLISEAKQLFSRYDTSSLAAKE -0.17
6. HMTGQEGLIGAHGVALTRLSNEEGEVKVQGEIWQARSDQEVAKGASIEVVHVDGLVLTVRPQH -0.0984
7. HMGPAAGVVEKYNLAHLSTGEMIRKEIAEGSDFGKMAAGIINKGELLSDEFVVALIENSIEHHKNVDGFLF -0.00841
8. HMVDSLTIGRRIRQLRTERGMTLEELAAAVGRAPSQLSMIENGRREPKLTLLQAIARALGSTLDALLE -0.116
9. HMNVVINNELVSLMVEAMKDGVSSKSIQEEFEGYKISGKTITKKVLTAHVNKALEVFADMQE -0.213
10. HMEIPTPAELREKRIRMGLKQADVARMAGISQSMVARIESGSVDPRVSTLAKIVEVLQAAER -0.175
11. HMSQPYFELAAADMEALRNALSTIREIESVVLSGKIFHVEVREDLDPGTMNKLAFERGITLTHLVKKKN -0.0763
12. HMGAVFEFIMEEEEPERIDKLLSSALPDLSRSYLQKLVKEGAVLVNKKEVKPNHKVNPGDVVEISVPEPE 0.18
13. HMSIEIIEITSNSSPKNLSEIIDIDATQIVADLMGLGIMKAIDTPLENSEIEQLLEKYNLIAEFVE -1.47
14. HMGYTLDVAHGVTEDMNFSEAFATAREEVGPGGIFYWHGKPYGTYYENEWNAMDEEDKAEYWDAVGRTTA -0.149
15. HMAQASEPMLALIRLKWWEEQINSPVKGDSLPLLSQLNSHISAGYLSRSQVTSLIQRWQDYA -0.787
16. HMTTETGTVKWFNEGKGFGFIAPDGGGKDLFAHFKEIQGSGFKTLTENQRVQFEVTQGQKGPQASNIRTL 0.243
17. HMIESLKGILHKKDPTIAIIDVGGVRLSVNITLSTYEKLEEINSSIELLTYFNVREDAMELYG -0.157
18. HMINNINKLPETQFIKLFANIFENSQFIAVALYKKKGDGFSDFKDLINKIMDIFENTTKEKKLKILNA -0.0982
19. HMGGTFLVRILDPALNIRAQPSLTARINGVIRDKSVYTIVATSFEPKTQITWGKLKSGAGWISIGSKYVKK -3.52
20. HMYALGIPVSQYRRTTQVLGHESSYPIAYEDEKQDDDFYLFKFPNIDEYDFKKIVILLKQNGITT -1.61
21. HMGMSMNEFLNNRLEQLAVEAVDKSSLGEEIFFYAEPATINLFKDAVDEDEYKVVFPVLKSIIEVEQKLSR -1.03
22. HMDGASLLDIDGDGKVTPTIDGLLLMRWQFGTRGAALIGGISFPAGALRTTVNAIELHMRRLSETT -0.844
23. HMKEAISIYPNPVKDILTIRGMDETSGVSFKLYDVTGNLLLESTHSELDMSGLNRGVYFLDIAGDVRKVVK 0.0696
24. HMGEIHALIPGLVSRLFVKPGDRVENGQGLLILEAMKMENEIDSPISGVVGKIYIKAGDKVEKGELIMEIN -0.46
25. HMKQTMIVVMEKDAPQSQIDDMVKRIEGLGLKAHTIVGTQRTVVAAIGEKREDTRESLAGSPGVAEVVPIL 0.181
26. HMDIMLLLYKNIKKRRLEIGMSQEELAQKTGYTSRSSIAKIEKGEVDLQLSKIKLFANALRVSQSELMG -3.39
27. HMQSVSANSVQKQLADIIDGEDKTHPLSDRELTEKLVAQGVQISRRTVAKYREAMGIPGASGRKQ 0.072
28. HMKNDKLLIFMELKGISRTQLSKSTGIPASTLGRIINGDVQKIKAVYMEAIANALDTSIHTIFDV -1.27
29. HMTTQERVSYSAFINDVETGRVAKVVISGYTIEGTRTNNSSFVTERPYGVDSNLSEVLMQNSVSIEGKA -0.129
30. HMSTTYAPYLLGETEQEAIRMARNAGLDPQVVRQSDKSEAGTVILQSHDFGFAMKRGAVILITVSSGPLQ -1.44
31. HMDLAPLQTVDIAINYAKAAELAAILKSSEGGILSDRGGVTVDERTNTLLIRDTLESIDEARKTI 0.122
32. HMNMKVGPVPANVVPANIKAHVSNNYSKYQIVQMMQNDKGYQVKLSNGTDLYYDKDGNILKTS 0.196
33. HMSISDEDFAKLLDFVKEKWDAGELDNAEDIKAAISEGEKEFGVSLDESTRTTLASALQQLN -0.134
